Test: in vivo
Details: male, Sprague-Dawley, rat, in vivo, po, 2 g/kg, T max
readout: Tmax

In [3]: df
Out[3]:
                                   molecule     val
0  Cc1c([C@H](C)[C@@H]2NC[C@@H](C)C[C@H]2O)ccc2c1C[C@H]1[C@H]2CC=C2C[C@@H](O)CC[C@@]21C [Veratramine, veratramine]  > 32 h

----------
Experiment: in vivo
Conditions: male, Sprague-Dawley, rat, in vivo, po, 2 g/kg
Method: 0.1% formic acid in water (A) and acetonitrile (B) were used as mobile phases with the following gradient elution method: 0-2 min, 15%-25% B; 2-4 min, 25%-50% B; 4-6 min, 50%-90% B; and 6-7 min, 90%-95% B. The separation was performed on a Waters ACQUITY UPLC® CSHTM Phenyl-Hexyl (2.1 × 100 mm, 1.7 μm) column, and the temperature was maintained at 20°C. The flow rate and injection volume were 0.3 mL/min and 5 μL, respectively. […]
Threshold-based label: AUC(0-inf) under 0.4 µg·h/mL gives t, AUC(0-inf) not under 0.4 µg·h/mL gives f.

compound	classification
Cc1c([C@H](C)[C@@H]2NC[C@@H](C)C[C@H]2O)ccc2c1C[C@H]1[C@H]2CC=C2C[C@@H](O[C@@H]3O[C@H](CO)[C@@H](O)[C@H](O)[C@H]3O)CC[C@@]21C [Veratrosine, veratrosine]	f
Cc1c([C@H](C)[C@@H]2NC[C@@H](C)C[C@H]2O)ccc2c1C[C@H]1[C@H]2CC=C2C[C@@H](O)CC[C@@]21C [Veratramine, veratramine]	f
CC1=C2C(=O)[C@H]3[C@@H](CC=C4C[C@@H](O)CC[C@@]43C)[C@@H]2CC[C@]12O[C@@H]1C[C@H](C)CN[C@H]1[C@H]2C [Jervine, jervine]	f
OC[C@H]1O[C@@H](Oc2cc(O)cc(/C=C/c3ccc(O)cc3)c2)[C@H](O)[C@@H](O)[C@@H]1O [Polydatin, polydatin]	t
Oc1ccc(/C=C/c2cc(O)cc(O)c2)cc1 [Resveratrol, resveratrol]	t

----------
Experiment: in vivo
Conditions: male, Sprague-Dawley, rat, in vivo, po, 2 g/kg
Threshold check on half-life: strictly below 10 h is True; on or above 10 h is False.

structure	classification
Cc1c([C@H](C)[C@@H]2NC[C@@H](C)C[C@H]2O)ccc2c1C[C@H]1[C@H]2CC=C2C[C@@H](O[C@@H]3O[C@H](CO)[C@@H](O)[C@H](O)[C@H]3O)CC[C@@]21C	False
OC[C@H]1O[C@@H](Oc2cc(O)cc(/C=C/c3ccc(O)cc3)c2)[C@H](O)[C@@H](O)[C@@H]1O	False
Cc1c([C@H](C)[C@@H]2NC[C@@H](C)C[C@H]2O)ccc2c1C[C@H]1[C@H]2CC=C2C[C@@H](O)CC[C@@]21C	False
CC1=C2C(=O)[C@H]3[C@@H](CC=C4C[C@@H](O)CC[C@@]43C)[C@@H]2CC[C@]12O[C@@H]1C[C@H](C)CN[C@H]1[C@H]2C	False
Oc1ccc(/C=C/c2cc(O)cc(O)c2)cc1	True

----------
Experiment: in vivo
Conditions: male, Sprague-Dawley, rat, in vivo, po, 2 g/kg
Cmax under 200 ng/mL gets Yes, anything at or over 200 ng/mL gets No.

molecule	classification
CC1=C2C(=O)[C@H]3[C@@H](CC=C4C[C@@H](O)CC[C@@]43C)[C@@H]2CC[C@]12O[C@@H]1C[C@H](C)CN[C@H]1[C@H]2C [Jervine, jervine]	No
Oc1ccc(/C=C/c2cc(O)cc(O)c2)cc1 [Resveratrol, resveratrol]	Yes
OC[C@H]1O[C@@H](Oc2cc(O)cc(/C=C/c3ccc(O)cc3)c2)[C@H](O)[C@@H](O)[C@@H]1O [Polydatin, polydatin]	Yes
Cc1c([C@H](C)[C@@H]2NC[C@@H](C)C[C@H]2O)ccc2c1C[C@H]1[C@H]2CC=C2C[C@@H](O)CC[C@@]21C [Veratramine, veratramine]	Yes
Cc1c([C@H](C)[C@@H]2NC[C@@H](C)C[C@H]2O)ccc2c1C[C@H]1[C@H]2CC=C2C[C@@H](O[C@@H]3O[C@H](CO)[C@@H](O)[C@H](O)[C@H]3O)CC[C@@]21C [Veratrosine, veratrosine]	No

----------
Assay: in vivo
Settings: male, Sprague-Dawley, rat, in vivo, po, 2 g/kg
Please note: Met applies when MRT inf is 20 h or greater, and Not met applies otherwise.

structure	classification
CC1=C2C(=O)[C@H]3[C@@H](CC=C4C[C@@H](O)CC[C@@]43C)[C@@H]2CC[C@]12O[C@@H]1C[C@H](C)CN[C@H]1[C@H]2C	Met
OC[C@H]1O[C@@H](Oc2cc(O)cc(/C=C/c3ccc(O)cc3)c2)[C@H](O)[C@@H](O)[C@@H]1O	Not met
Oc1ccc(/C=C/c2cc(O)cc(O)c2)cc1	Not met
Cc1c([C@H](C)[C@@H]2NC[C@@H](C)C[C@H]2O)ccc2c1C[C@H]1[C@H]2CC=C2C[C@@H](O[C@@H]3O[C@H](CO)[C@@H](O)[C@H](O)[C@H]3O)CC[C@@]21C	Not met
Cc1c([C@H](C)[C@@H]2NC[C@@H](C)C[C@H]2O)ccc2c1C[C@H]1[C@H]2CC=C2C[C@@H](O)CC[C@@]21C	Met

----------
Assay: in vivo
Details: male, Sprague-Dawley, rat, in vivo, po, 2 g/kg

compound	unit.descriptor	AUC(0-t)
Cc1c([C@H](C)[C@@H]2NC[C@@H](C)C[C@H]2O)ccc2c1C[C@H]1[C@H]2CC=C2C[C@@H](O[C@@H]3O[C@H](CO)[C@@H](O)[C@H](O)[C@H]3O)CC[C@@]21C [Veratrosine, veratrosine]	ng·h/mL	410
Cc1c([C@H](C)[C@@H]2NC[C@@H](C)C[C@H]2O)ccc2c1C[C@H]1[C@H]2CC=C2C[C@@H](O)CC[C@@]21C [Veratramine, veratramine]	ng·h/mL	7980
CC1=C2C(=O)[C@H]3[C@@H](CC=C4C[C@@H](O)CC[C@@]43C)[C@@H]2CC[C@]12O[C@@H]1C[C@H](C)CN[C@H]1[C@H]2C [Jervine, jervine]	ng·h/mL	22600
OC[C@H]1O[C@@H](Oc2cc(O)cc(/C=C/c3ccc(O)cc3)c2)[C@H](O)[C@@H](O)[C@@H]1O [Polydatin, polydatin]	ng·h/mL	60.4
Oc1ccc(/C=C/c2cc(O)cc(O)c2)cc1 [Resveratrol, resveratrol]	ng·h/mL	89.7
